Read-out record for Escherichia coli SS: MIC
Give just the number in µg/mL; leave the unit off.

- STRUCTURE: "CC[C@H]1OC(=O)[C@H](C)[C@@H](O[C@H]2C[C@@](C)(OC)C[C@H](C)O2)[C@H](C)[C@@H](O[C@@H]2O[C@H](C)C[C@H](N(C)CC)[C@H]2O)[C@@]2(C)C[C@@H](C)C(O2)[C@H](C)[C@@H](O)[C@]1(C)O"
  ASSAY METRIC: "MIC"
  DATA VALUE: 100

Lab book: MIC of `CC[C@H]1OC(=O)[C@H](C)[C@@H](O[C@H]2C[C@@](C)(OC)C[C@H](C)O2)[C@H](C)[C@@H](O[C@@H]2O[C@H](C)C[C@H](N(C)CC)[C@H]2O)[C@@]2(C)CC(C)=C(O2)[C@H](C)[C@@H](O)[C@H]1C` noted as 100

get_value(item= `CC[C@H]1OC(=O)[C@H](C)[C@@H](O[C@H]2C[C@@](C)(OC)[C@@H](O)[C@H](C)O2)[C@H](C)[C@@H](O[C@@H]2O[C@H](C)C[C@H](N(C)C)[C@H]2O)[C@](C)(O)C[C@@H](C)C(=O)[C@H](C)[C@@H](O)[C@]1(C)O` , readout=MIC) returns 0.2

Sourced from patent US5654411A
